target desc: Caspase-6 (Homo sapiens, UniProt P55212)
Sequence (P55212 whole entry): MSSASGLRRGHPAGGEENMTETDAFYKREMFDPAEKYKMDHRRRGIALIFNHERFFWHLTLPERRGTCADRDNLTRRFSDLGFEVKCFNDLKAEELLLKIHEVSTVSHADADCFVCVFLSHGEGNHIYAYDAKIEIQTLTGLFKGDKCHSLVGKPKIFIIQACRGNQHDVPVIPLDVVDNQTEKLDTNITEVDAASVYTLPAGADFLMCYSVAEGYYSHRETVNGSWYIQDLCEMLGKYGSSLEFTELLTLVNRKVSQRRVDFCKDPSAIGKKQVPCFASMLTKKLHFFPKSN
run description: human caspase-6 inhibitors, dose response, biochemical, VEID-R110 fluorescence, cherry-pick (AID 720632)
Activity calls are given as the source filed them. The rule behind the calls is not given here.
Exercise: state measured AC50 for each of the compounds provided.

Query: Observed AC50 on Caspase-6 (Homo sapiens, UniProt P55212) for Cc1nc2c(=O)[nH]c(=S)[nH]c2nc1O , please.
Reply: 6.58 µM (active)

Query: # repeat for O=C(COC(=O)c1ccc([N+](=O)[O-])o1)NCCCc1ccccc1
Reply: 35.2 µM (active)

Query: # repeat for O=c1ccc2[n+]([O-])c3ccc(O)cc3oc-2c1
Reply: 0.285 µM (active)

Query: # repeat for CCc1ccc2cccc3c2c1N=CN3C
Reply: 6.79 µM (active)

Origin of measurements: ChEMBL document CHEMBL1201862
